Kindly state self-cleavage kobs at 40 uM GlcN6P for each of the entries shown.
B1: glmS ribozyme (parent)
chain: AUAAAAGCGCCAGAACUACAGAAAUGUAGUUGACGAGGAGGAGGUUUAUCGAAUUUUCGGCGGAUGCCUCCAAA

Variants of: B1
Test: self-cleavage kobs at 40 uM GlcN6P; higher = faster cleavage; RNA array
Settings: with glucosamine-6-phosphate
Fewer inactive variants are shown than the library holds.
Answers are plain numbers, in s⁻¹.

Known results for variants:
• A39G C71A = 0.000536
• A52G C68U = 2.35e-05
• C16U U30A = 7.15e-05

Go through the list and state self-cleavage kobs at 40 uM GlcN6P for each entry.
1. A14C C70U
2. C68U

0.000159
0.000113
